TGI values, listed per item
System: A549 NSCLC
assay.notes: NCI tumour cell line growth inhibition, 48 h

## Task For the compound [N-]=[N+]=NCCCn1c2c(c3cc4c(cc3c1=O)OCO4)C(=O)c1ccccc1-2 , what TGI is on record?
## Result > 100 µM

###

Test system: COLO 205 colon
assay.notes: NCI tumour cell line growth inhibition, 48 h
TGI values, listed per item

Reference set (2 entries):
O=C(CSc1nc2ccccc2c2ccccc12)c1ccccc1    > 100 µM
C=CCOC(C)n1c(C)cc(=O)n(C(C)OCC=C)c1=O (stereo not drawn)    > 100 µM

--- query ---
## Task For the molecule CNC(=O)NCC1OC(n2cnc3c(NC(=O)Nc4ccccc4)ncnc32)C(O[Si](C)(C)C(C)(C)C)C1CC(=O)N(C)OC (stereo not drawn) , what TGI is on record?
## Result > 100 µM

###

Tested on: SF-295 CNS
assay.notes: NCI tumour cell line growth inhibition, 48 h; in the data active = GI50 below about 0.43 µM; inactive = the rest
Log the outcome using a class from Yes (active), No (inactive)

// below: answered molecules
COc1cc2c(cc1I)-c1c(cc(OC)c(OC)c1OC)CC[C@@H]2NC(C)=O    Yes
COc1ccc(CC(C)=C(c2ccc(OCCN3CCCCCC3)cc2)c2ccc(OCCN3CCCCCC3)cc2)cc1    Yes
O=C(Nc1ccc(OCc2nnc(-c3ccc(Cl)cc3)o2)c(F)c1)c1ccc(Cl)c(C(F)(F)F)c1    No
CCC[CH2][Sn]1([CH2]CCC)[O]C(=O)c2cccc(C)c2[O]1    No
O=C(Nc1nc(-c2ccc(Cl)cc2)cs1)c1cc(-c2ccc(Br)cc2)nc2ccc(Cl)cc12    No

## Task Please share the test call associated with COc1cc(/C=C/c2cc(/C=C/c3ccc(O)c(OC)c3)n(-c3c(Cl)cccc3Cl)c(=O)n2)ccc1O .
## Result No

## Task Please share the test call associated with NCCCOc1cc2ccccc2cc1C(=O)NCCOc1nc2ccccc2cc1C(=O)Nc1ccc(Cl)cc1O .
## Result No

## Task Please share the test call associated with CC1(C)C(N(O)C(=O)Nc2ccc(Cl)cc2)N(c2ccc(Cl)cc2)C(=O)N1CC(=O)N/N=C/C=C/c1ccc([N+](=O)[O-])o1 (stereo not drawn) .
## Result No

###

System: LOX IMVI melanoma
assay.notes: NCI tumour cell line growth inhibition, 48 h
parameter: TGI

Reference set (5 entries):
N#Cc1ccccc1NC(=O)/C(=N\Nc1ccc([N+](=O)[O-])cc1)C1C(=O)NC(=O)NC1=O    > 100 µM
C[N+](C)(C)CCN(Cc1cccs1)c1ccccn1    > 100 µM
COc1cc2ccnc(C=O)c2cc1OC    > 100 µM
c1ccc(C2(c3ccccc3)SSC3(S2)C2CC4CC(C2)CC3C4)cc1 (centres undefined)    > 100 µM
Cn1c(-c2ccccc2)cc(-c2ccsc2)c1-c1ccsc1    > 100 µM

## Task For the molecule CC1=C(O)C(=O)C(C2=C(O)C(=O)C(C)=C(O)C2=O)=C(O)C1=O , what TGI is on record?
## Result > 100 µM

###

Test system: HCT-15 colon
assay.notes: NCI tumour cell line growth inhibition, 48 h
TGI values, listed per item

Cc1ccc(O)c(-c2cc(-c3cccc(Br)c3)on2)c1    > 100 µM
O=C1c2[nH]c3ccccc3c2CCN2CCCCC12 (configuration not stated)    > 100 µM
COc1cc2c(cc1OCCCCCn1c(-c3ccc(OCc4ccccc4)cc3)nc3cc(N4CCOCC4)ccc31)N=C[C@@H]1CCCN1C2=O    > 31.3 µM

## Task For the molecule COc1ccc(NC2=NCCO2)c2c1CCCC2 , what TGI is on record?
## Result > 100 µM

## Task For the molecule CNCCCCN(C)/[N+]([O-])=N\O , what TGI is on record?
## Result > 100 µM

## Task For the molecule CC(C)(Cl)C(Br)CCC(C)(Br)C(Br)CBr (configuration not stated) , what TGI is on record?
## Result 42.6 µM

## Task For the molecule CCC(=O)c1cc(C(=O)C(=S)SC)cc(C(=O)C(=S)SC)c1 , what TGI is on record?
## Result > 100 µM

## Task For the molecule COc1ccc2c(CCNC(C)=O)c(C(C)=O)[nH]c2c1 , what TGI is on record?
## Result > 100 µM

## Task For the molecule O=C(CCc1n[nH]c(=S)o1)Nc1ccc(Cl)cc1Cl , what TGI is on record?
## Result 46.1 µM

## Task For the molecule O=[N+]([O-])c1ccc(C2=Nn3c(nnc3-c3ccccc3)SC2)o1 , what TGI is on record?
## Result 38.2 µM

Reference for the values: PubChem BioAssay (NCI)
